# SYSTEM NAME: rat mGlu 1a receptor (Rattus norvegicus)
# Construct: expressed in transfected cells; host or cells: EBNA cells (transient transfection)
# Sequence (P23385 19-1199): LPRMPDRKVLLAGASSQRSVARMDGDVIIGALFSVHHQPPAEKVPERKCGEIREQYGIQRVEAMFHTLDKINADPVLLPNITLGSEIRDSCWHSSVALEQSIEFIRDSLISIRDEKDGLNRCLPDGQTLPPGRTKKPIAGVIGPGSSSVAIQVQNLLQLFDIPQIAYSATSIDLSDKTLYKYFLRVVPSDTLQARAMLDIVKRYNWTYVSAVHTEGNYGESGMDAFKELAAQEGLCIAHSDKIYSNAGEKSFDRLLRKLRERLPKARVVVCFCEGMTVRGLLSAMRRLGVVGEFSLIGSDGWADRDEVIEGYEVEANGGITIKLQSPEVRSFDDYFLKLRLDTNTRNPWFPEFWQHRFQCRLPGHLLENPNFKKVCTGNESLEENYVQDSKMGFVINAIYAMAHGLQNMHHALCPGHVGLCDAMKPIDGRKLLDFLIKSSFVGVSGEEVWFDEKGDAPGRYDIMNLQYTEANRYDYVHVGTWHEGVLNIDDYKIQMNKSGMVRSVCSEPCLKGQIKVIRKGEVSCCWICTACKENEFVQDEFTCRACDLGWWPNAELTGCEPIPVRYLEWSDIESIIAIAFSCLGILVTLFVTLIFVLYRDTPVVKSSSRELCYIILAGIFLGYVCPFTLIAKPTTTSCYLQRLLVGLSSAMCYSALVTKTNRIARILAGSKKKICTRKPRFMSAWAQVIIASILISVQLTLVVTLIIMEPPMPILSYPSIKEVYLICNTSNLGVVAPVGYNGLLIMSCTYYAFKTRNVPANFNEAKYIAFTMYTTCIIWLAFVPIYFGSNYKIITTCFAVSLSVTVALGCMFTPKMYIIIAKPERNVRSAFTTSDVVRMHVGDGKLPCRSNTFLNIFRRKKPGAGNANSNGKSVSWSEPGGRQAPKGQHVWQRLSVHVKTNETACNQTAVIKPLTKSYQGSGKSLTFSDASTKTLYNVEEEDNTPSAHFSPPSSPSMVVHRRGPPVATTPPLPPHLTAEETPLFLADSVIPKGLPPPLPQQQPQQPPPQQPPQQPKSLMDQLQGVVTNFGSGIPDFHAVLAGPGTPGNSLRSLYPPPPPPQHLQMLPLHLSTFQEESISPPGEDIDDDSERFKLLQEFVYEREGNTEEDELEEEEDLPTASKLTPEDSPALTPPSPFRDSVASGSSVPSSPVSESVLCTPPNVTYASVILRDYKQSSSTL
# ASSAY EXPLANATION: [Ca2+]i measurements (FLIPR, Fluo-3 AM) on mGlu 1a transfected EBNA cells; agonist or antagonist (against 10 μM glutamate)
# Type: cell-based
# CONDITION: table of substituents of the Examples, column Remarks
READOUT: Remarks (agonist / antagonist)

// returns reported Remarks (agonist / antagonist) for input Cc1ccc(S(=O)(=O)N2CCCC2c2cccc(Cl)c2)cc1 (racemic) [Example 31]
Agonist

Need Remarks (agonist / antagonist), item COCc1ccc(S(=O)(=O)N2CCCC2c2ccc(F)cc2)cc1 (racemic) [Example 85]
Agonist

Name the recorded Remarks (agonist / antagonist) for Cc1ccc(S(=O)(=O)N2CCCC2c2ccc(C(F)(F)F)cc2)cc1 (racemic) [Example 48] .
Agonist

====

# SYSTEM NAME: rat mGlu 1a receptor (Rattus norvegicus)
# Construct: expressed in transfected cells; host or cells: EBNA cells (transient transfection)
# ASSAY EXPLANATION: [Ca2+]i measurements (FLIPR, Fluo-3 AM) on mGlu 1a transfected EBNA cells; agonist or antagonist (against 10 μM glutamate)
# Format: cell-based
# CONDITION: table of substituents of the Examples, column Remarks
READOUT: Remarks (agonist / antagonist)

The examples below pair each entry with its known result.
Look up Remarks (agonist / antagonist) for this compound: O=S(=O)(c1ccc(Cl)cc1)N1CCCC1c1cccs1 (racemic) [Example 36]
Antagonist

Give its Remarks (agonist / antagonist) value. Item: CN(C)c1ccc(C2CCCN2S(=O)(=O)c2ccc(Cl)cc2)cc1F (racemic) [Example 40]
Agonist

Suppose we examine the compound Cc1ccc(S(=O)(=O)N2CCCC2c2ccc(F)cc2)cc1 (racemic) [Example 12] ; what Remarks (agonist / antagonist) value has been reported?
Agonist

I would be grateful if you could share the reported Remarks (agonist / antagonist) for O=S(=O)(c1ccc(Br)cc1)N1CCCC1c1ccc(F)cc1 (racemic) [Example 26] .
Agonist

# lookup: Remarks (agonist / antagonist) of O=S(=O)(c1ccc(Cl)cc1)N1CCCC1c1ccco1 (racemic) [Example 71]
Antagonist

Now turn to the next compound.
# query: Remarks (agonist / antagonist) of entry Cc1ccccc1S(=O)(=O)N1CCCC1c1ccc(F)cc1 (racemic) [Example 18]
Antagonist
